Species on record: Homo sapiens
Assay: Selectivity index, ratio of IC50 for human recombinant CYP1A1 to IC50 for human recombinant CYP1B1 using 7-ethoxyresorufin as substrate
Readout Label: Ratio IC50

O=C(Nc1cc(Cl)cc(Cl)c1)c1nc(-c2cccc(F)c2)cs1 ... 105

[P] N#Cc1ccc(-c2csc(C(=O)Nc3ccc(OC(F)F)cc3)n2)cc1
[Q] O=C(Nc1ccc(C(F)(F)F)cc1)c1nc(-c2ccccc2)cs1
[R] O=C(Nc1ccc(OC(F)(F)F)cc1)c1nc(-c2ccccc2)cs1
[S] O=C(Nc1ccc(F)cc1F)c1nc(-c2ccc(F)cc2)cs1
Query block: Order the records, beginning with the lowest Ratio IC50 and ending with the highest. Field: ranking. Enter the labels in the order requested.
Result block: R, P, S, Q
